Values from patent US11584755B2

Known IC50 of a selection of molecules
- tested-system: UniProt P39748
- Sequence (P39748 whole entry): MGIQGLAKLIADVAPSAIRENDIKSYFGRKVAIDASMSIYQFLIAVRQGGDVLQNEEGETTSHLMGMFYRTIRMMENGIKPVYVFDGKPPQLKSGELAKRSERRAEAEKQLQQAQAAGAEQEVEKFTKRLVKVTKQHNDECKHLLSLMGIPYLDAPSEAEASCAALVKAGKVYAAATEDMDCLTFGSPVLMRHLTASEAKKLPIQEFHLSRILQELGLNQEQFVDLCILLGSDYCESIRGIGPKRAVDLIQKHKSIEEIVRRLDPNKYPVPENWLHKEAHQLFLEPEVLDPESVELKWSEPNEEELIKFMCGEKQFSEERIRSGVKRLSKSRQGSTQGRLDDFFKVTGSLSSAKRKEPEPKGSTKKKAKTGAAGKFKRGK

{"smiles-string": "O=C(O)c1c(O)c(=O)n(Cc2cn(-c3ccc4nc[nH]c4c3)nn2)c2ccsc12", "IC50": "< 200 nM"}
{"smiles-string": "N#Cc1cccc(Cn2c(=O)c(O)c(C(=O)O)c3sccc32)c1", "IC50": "2250 to 10000 nM"}
{"smiles-string": "O=C(O)c1c(O)c(=O)n(Cc2ccccc2[N+](=O)[O-])c2ccsc12", "IC50": "250 to 750 nM"}
{"smiles-string": "Cc1ncc(Cn2c(=O)c(O)c(C(=O)O)c3sccc32)s1", "IC50": "< 200 nM"}
{"smiles-string": "O=C(O)c1c(O)c(=O)n(Cc2cnn(-c3ccccc3[N+](=O)[O-])c2)c2ccsc12", "IC50": "< 200 nM"}
{"smiles-string": "O=C(O)c1c(O)c(=O)n(Cc2cnn(CC(=O)N3CC[C@H](O)C3)c2)c2ccsc12", "IC50": "250 to 750 nM"}
{"smiles-string": "Nc1ccc(Cn2c(=O)c(O)c(C(=O)O)c3sccc32)cc1Cl", "IC50": "250 to 750 nM"}
{"smiles-string": "CS(=O)(=O)c1cccc(Cn2cc(Cn3c(=O)c(O)c(C(=O)O)c4sccc43)cn2)c1", "IC50": "< 200 nM"}
{"smiles-string": "O=C(O)c1c(O)c(=O)n(CC2CCCC2)c2ccsc12", "IC50": "2250 to 10000 nM"}
{"smiles-string": "O=C(O)c1c(O)c(=O)n(Cc2cnn(Cc3cn4ncccc4n3)c2)c2ccsc12", "IC50": "< 200 nM"}
{"smiles-string": "Cc1ncc(Cn2c(=O)c(O)c(C(=O)O)c3sccc32)o1", "IC50": "250 to 750 nM"}
{"smiles-string": "CNC(=O)c1cccc(Cn2c(=O)c(O)c(C(=O)O)c3sccc32)c1", "IC50": "2250 to 10000 nM"}
{"smiles-string": "O=C(O)c1c(O)c(=O)n(Cc2cnc3c(-c4ccncc4)cccn23)c2ccsc12", "IC50": "2250 to 10000 nM"}
{"smiles-string": "O=C(O)c1c(O)c(=O)n(Cc2cnn(-c3cccnc3)c2)c2ccsc12", "IC50": "< 200 nM"}
{"smiles-string": "O=C(O)c1c(O)c(=O)n(Cc2cnn(-c3ccccc3)c2)c2ccsc12", "IC50": "< 200 nM"}
{"smiles-string": "CN(C(=O)Cn1cc(Cn2c(=O)c(O)c(C(=O)O)c3sccc32)cn1)c1ccccc1", "IC50": "< 200 nM"}

====

- tested-system: hEXO1, Isoform1 (Homo sapiens (Human))
- Sequence (Q9UQ84 whole entry, canonical isoform): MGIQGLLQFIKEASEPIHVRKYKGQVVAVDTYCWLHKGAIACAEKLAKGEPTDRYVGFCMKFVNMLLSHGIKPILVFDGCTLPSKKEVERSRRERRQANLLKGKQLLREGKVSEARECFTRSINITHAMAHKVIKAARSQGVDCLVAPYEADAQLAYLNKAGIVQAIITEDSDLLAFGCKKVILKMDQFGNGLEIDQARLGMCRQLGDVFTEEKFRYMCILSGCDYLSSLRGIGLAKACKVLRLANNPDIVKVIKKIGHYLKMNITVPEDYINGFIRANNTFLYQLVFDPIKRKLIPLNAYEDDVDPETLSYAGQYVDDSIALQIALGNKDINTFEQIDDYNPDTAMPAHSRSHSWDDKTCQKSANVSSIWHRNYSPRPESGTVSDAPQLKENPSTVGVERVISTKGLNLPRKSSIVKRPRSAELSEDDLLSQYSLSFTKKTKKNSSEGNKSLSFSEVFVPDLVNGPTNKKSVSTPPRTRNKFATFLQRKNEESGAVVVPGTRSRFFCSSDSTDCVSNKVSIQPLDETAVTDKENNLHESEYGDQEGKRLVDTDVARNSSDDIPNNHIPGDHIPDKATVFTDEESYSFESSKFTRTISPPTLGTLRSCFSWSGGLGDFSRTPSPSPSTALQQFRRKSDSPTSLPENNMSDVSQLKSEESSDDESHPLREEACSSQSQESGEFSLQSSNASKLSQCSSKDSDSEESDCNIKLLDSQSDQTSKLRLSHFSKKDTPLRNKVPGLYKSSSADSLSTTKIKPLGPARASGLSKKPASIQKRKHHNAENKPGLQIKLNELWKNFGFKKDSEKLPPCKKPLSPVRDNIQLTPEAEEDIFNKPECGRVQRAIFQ
- test-details: Enzymatic IC50 assay, FAM-labeled DNA oligomer substrate, fluorescence intensity (EXO1)
- Assay type: biochemical
- condition-info: hEXO1 6 nM, substrate 30 nM, reaction time 60 minutes, 23° C.
pIC50: −log10 of the molar value.
Attribute: pIC50

{"compound": "O=C(O)c1c(O)c(=O)n(Cc2noc(-c3ccccc3)n2)c2ccsc12", "pIC50": "6.12 to 6.60"}
{"compound": "CS(=O)(=O)c1cccc(-n2cc(Cn3c(=O)c(O)c(C(=O)O)c4sccc43)cn2)c1", "pIC50": "> 6.70"}
{"compound": "O=C(O)c1c(O)c(=O)n(Cc2cnn(Cc3cccnc3)c2)c2ccsc12", "pIC50": "5.00 to 5.65"}
{"compound": "N#Cc1ccc(Cn2c(=O)c(O)c(C(=O)O)c3sccc32)cc1", "pIC50": "5.00 to 5.65"}
{"compound": "Cc1nn(C)cc1Cn1c(=O)c(O)c(C(=O)O)c2sccc21", "pIC50": "5.00 to 5.65"}
{"compound": "O=C(O)c1c(O)c(=O)n(Cc2ccc(Br)cc2)c2ccsc12", "pIC50": "5.00 to 5.65"}
{"compound": "CCOC(=O)c1c(O)c(=O)n(Cc2ccc(N)cc2)c2ccsc12", "pIC50": "5.00 to 5.65"}
{"compound": "O=C(O)c1c(O)c(=O)n(Cc2cnn3ccccc23)c2ccsc12", "pIC50": "5.65 to 6.12"}
{"compound": "O=C(O)c1c(O)c(=O)n(CC2CCCC2)c2ccsc12", "pIC50": "5.00 to 5.65"}
{"compound": "O=C(O)c1c(O)c(=O)n(Cc2cnn(CC(=O)N3CCOCC3)c2)c2ccsc12", "pIC50": "5.00 to 5.65"}
{"compound": "CC(=O)Nc1ccc(-n2cc(Cn3c(=O)c(O)c(C(=O)O)c4sccc43)cn2)cc1", "pIC50": "6.12 to 6.60"}
{"compound": "O=C(O)c1c(O)c(=O)n(Cc2cn(-c3ccccc3)nn2)c2ccsc12", "pIC50": "6.12 to 6.60"}
{"compound": "CS(=O)(=O)c1cccc(Cn2c(=O)c(O)c(C(=O)O)c3sccc32)c1", "pIC50": "5.00 to 5.65"}
{"compound": "N#Cc1ccc(Cn2cc(Cn3c(=O)c(O)c(C(=O)O)c4sccc43)cn2)cc1", "pIC50": "5.65 to 6.12"}
{"compound": "Cc1nc(Cn2c(=O)c(O)c(C(=O)O)c3sccc32)cs1", "pIC50": "< 5.00"}
{"compound": "O=C(O)c1c(O)c(=O)n(CC2CCCNC2)c2ccsc12 (stereo not drawn)", "pIC50": "5.00 to 5.65"}
{"compound": "COc1ccc(-c2ncc(Cn3c(=O)c(O)c(C(=O)O)c4sccc43)s2)cc1", "pIC50": "5.65 to 6.12"}
{"compound": "O=C(O)c1c(O)c(=O)n(Cc2cnn(Cc3cccc4nonc34)c2)c2ccsc12", "pIC50": "5.00 to 5.65"}
{"compound": "CS(=O)(=O)Nc1ccc(-n2cc(Cn3c(=O)c(O)c(C(=O)O)c4sccc43)cn2)cc1", "pIC50": "6.12 to 6.60"}
{"compound": "CS(=O)(=O)c1cccc(Cn2cc(Cn3c(=O)c(O)c(C(=O)O)c4sccc43)cn2)c1", "pIC50": "5.00 to 5.65"}
{"compound": "COc1ccc(-n2cc(Cn3c(=O)c(O)c(C(=O)O)c4sccc43)c(Br)n2)cc1", "pIC50": "5.65 to 6.12"}
{"compound": "O=C(O)c1c(O)c(=O)n(Cc2ccccc2)c2ccsc12", "pIC50": "5.00 to 5.65"}
{"compound": "O=C(O)c1c(O)c(=O)n(Cc2cn(-c3ccc4nc[nH]c4c3)nn2)c2ccsc12", "pIC50": "5.00 to 5.65"}
{"compound": "CS(=O)(=O)Nc1ccc(Cn2c(=O)c(O)c(C(=O)O)c3sccc32)cc1", "pIC50": "6.12 to 6.60"}
{"compound": "O=C(O)c1c(O)c(=O)n(Cc2cnn(Cc3ccccn3)c2)c2ccsc12", "pIC50": "5.00 to 5.65"}
{"compound": "Nc1ccc(Cn2c(=O)c(O)c(C(=O)O)c3sccc32)cn1", "pIC50": "5.00 to 5.65"}
{"compound": "CC(=O)N1CCCC(Cn2c(=O)c(O)c(C(=O)O)c3sccc32)C1 (stereo not drawn)", "pIC50": "5.00 to 5.65"}
{"compound": "Cc1ncc(Cn2c(=O)c(O)c(C(=O)O)c3sccc32)s1", "pIC50": "5.00 to 5.65"}
{"compound": "COc1ccc(Cn2c(=O)c(O)c(C(=O)O)c3sccc32)cc1Cl", "pIC50": "5.65 to 6.12"}
{"compound": "O=C(O)c1c(O)c(=O)n(Cc2cnn(Cc3ccnnc3)c2)c2ccsc12", "pIC50": "5.00 to 5.65"}
{"compound": "CS(=O)(=O)Nc1ccc(-c2ncc(Cn3c(=O)c(O)c(C(=O)O)c4sccc43)s2)cc1", "pIC50": "5.65 to 6.12"}
{"compound": "CS(=O)(=O)c1ccc(Cn2cc(Cn3c(=O)c(O)c(C(=O)O)c4sccc43)cn2)cc1", "pIC50": "5.00 to 5.65"}
{"compound": "Cn1cc(Cn2c(=O)c(O)c(C(=O)O)c3sccc32)cn1", "pIC50": "5.00 to 5.65"}
{"compound": "Cn1ncc(Cn2c(=O)c(O)c(C(=O)O)c3sccc32)c1-c1ccccc1", "pIC50": "< 5.00"}
{"compound": "CS(=O)(=O)c1ccc(Cn2c(=O)c(O)c(C(=O)O)c3sccc32)cc1", "pIC50": "5.65 to 6.12"}
{"compound": "O=C(O)c1c(O)c(=O)n(Cc2cnc3ccccn23)c2ccsc12", "pIC50": "5.65 to 6.12"}
